Values were extracted from patent US9597342B2.

experiment: In vitro metabolic stability using human liver microsomes; details: 10 μM, 60 min
Observable: Mean % Remaining vs T = 0 min, Human Liver Microsomes (%)
The response must be a number in % with no trailing unit.

Here are 2 compounds together with their reported answers.
>  <Compound>
C#Cc1ccc2c(c1)C(c1ccccc1F)=N[C@H](C)c1c(C(=O)OCC)ncn1-2 [SH-053-2′F-RCH3]

>  <Unit spec>
%

>  <Recorded number>
105

$$$$
>  <Compound>
C#Cc1ccc2c(c1)C(c1ccccc1)=NCc1c(C(=O)OCCCOC(=O)c3ncn4c3CN(C)C(=O)c3cc(Cl)ccc3-4)ncn1-2

>  <Unit spec>
%

>  <Recorded number>
82.8

$$$$

Ask: What does the data say about its Mean % Remaining vs T = 0 min, Human Liver Microsomes? Entry: C#Cc1ccc2c(c1)C(c1ccccc1F)=NCc1c(C(=O)OCCCOC(=O)c3ncn4c3CN=C(c3ccccc3F)c3cc(C#C)ccc3-4)ncn1-2 [YT-III-271]
Result: 91.1

====

experiment: Incubation with heat-inactivated human liver microsomes (stability control); settings: 10 μM, 60 min
Known Mean % Remaining vs T = 0 min, with HI (Heat Inactivated) Microsomes of a selection of molecules
The response must be a number in % with no trailing unit.

Here are 5 molecules together with their reported answers.
>  <Molecule>
C#Cc1ccc2c(c1)C(c1ccccc1F)=N[C@@H](C)c1c(C(=O)OCC)ncn1-2 [SH-053-2′F-SCH3]

>  <Unit spec>
%

>  <Recorded number>
114

$$$$
>  <Molecule>
C#Cc1ccc2c(c1)C(c1ccccn1)=NCc1c(C(=O)OCC)ncn1-2 [HZ-166]

>  <Unit spec>
%

>  <Recorded number>
95.4

$$$$
>  <Molecule>
C#Cc1ccc2c(c1)C(c1ccccn1)=NCc1c(C(=O)NC)ncn1-2 [HJ-I-40]

>  <Unit spec>
%

>  <Recorded number>
110

$$$$
>  <Molecule>
C#Cc1ccc2c(c1)C(c1ccccc1)=NCc1c(C(=O)OCC)ncn1-2 [XHe-II-053]

>  <Unit spec>
%

>  <Recorded number>
102

$$$$
>  <Molecule>
C#Cc1ccc2c(c1)C(c1ccccn1)=NCc1c(C(=O)SC)ncn1-2 [ZJW-II-065]

>  <Unit spec>
%

>  <Recorded number>
110

$$$$

Ask: What does the data say about its Mean % Remaining vs T = 0 min, with HI (Heat Inactivated) Microsomes? Entry: C#Cc1ccc2c(c1)C(c1ccccc1F)=NCc1c(C(=O)OCC)ncn1-2 [JY-XHe-053]
Result: 111

Ask: What does the data say about its Mean % Remaining vs T = 0 min, with HI (Heat Inactivated) Microsomes? Entry: C#Cc1ccc2c(c1)C(c1ccccc1F)=NCc1c(C(=O)NC)ncn1-2 [HJ-I-037]
Result: 108

====

assay: In vitro metabolic stability using human liver microsomes; settings: 10 μM, 30 min
Observable: Mean % Remaining vs T = 0 min, Human Liver Microsomes (%)
The response must be a number in % with no trailing unit.

>  <Compound>
C#Cc1ccc2c(c1)C(c1ccccc1F)=N[C@H](C)c1c(C(=O)OCC)ncn1-2 [SH-053-2′F-RCH3]

>  <Unit spec>
%

>  <Recorded number>
105

$$$$
>  <Compound>
C#Cc1ccc2c(c1)C(c1ccccc1)=NCc1c(C(=O)O)ncn1-2 [XHe-II-053 Acid]

>  <Unit spec>
%

>  <Recorded number>
95.0

$$$$
>  <Compound>
C#Cc1ccc2c(c1)C(c1ccccn1)=NCc1c(-c3nc(C(C)C)no3)ncn1-2 [ZJW-II-040]

>  <Unit spec>
%

>  <Recorded number>
99.3

$$$$

Ask: What does the data say about its Mean % Remaining vs T = 0 min, Human Liver Microsomes? Entry: C#Cc1ccc2c(c1)C(c1ccccn1)=NCc1c(C(=O)SC)ncn1-2 [ZJW-II-065]
Result: 106

====

assay: Incubation with heat-inactivated human liver microsomes (stability control); conditions: 1 μM, 60 min
Observable: Mean % Remaining vs T = 0 min, with HI (Heat Inactivated) Microsomes (%)
The response must be a number in % with no trailing unit.

>  <Structure string>
C#Cc1ccc2c(c1)C(c1ccccc1F)=N[C@H](C)c1c(C(=O)OCC)ncn1-2

>  <Recorded number>
115

$$$$
>  <Structure string>
C#Cc1ccc2c(c1)C(c1ccccn1)=NCc1c(-c3nc(C(C)C)no3)ncn1-2

>  <Recorded number>
113

$$$$

Ask: What does the data say about its Mean % Remaining vs T = 0 min, with HI (Heat Inactivated) Microsomes? Entry: `C#Cc1ccc2c(c1)C(c1ccccc1)=NCc1c(C(=O)O)ncn1-2`
Result: 106

Ask: What does the data say about its Mean % Remaining vs T = 0 min, with HI (Heat Inactivated) Microsomes? Entry: `C#Cc1ccc2c(c1)C(c1ccccn1)=NCc1c(C(=O)SC)ncn1-2`
Result: 105

====

experiment: In vitro metabolic stability using human liver microsomes; conditions: 1 μM, 30 min
Observable: Mean % Remaining vs T = 0 min, Human Liver Microsomes
// return the numeric value with its unit appended

>  <Structure string>
C#Cc1ccc2c(c1)C(c1ccccc1)=NCc1c(C(=O)O)ncn1-2

>  <Result>
106%

$$$$
>  <Structure string>
C#Cc1ccc2c(c1)C(c1ccccc1F)=N[C@H](C)c1c(C(=O)OCC)ncn1-2

>  <Result>
86.7%

$$$$
>  <Structure string>
C#Cc1ccc2c(c1)C(c1ccccc1F)=NCc1c(C(=O)NC)ncn1-2

>  <Result>
99.5%

$$$$

Ask: What does the data say about its Mean % Remaining vs T = 0 min, Human Liver Microsomes? Entry: `C#Cc1ccc2c(c1)C(c1ccccc1F)=NCc1c(C(=O)OCCCOC(=O)c3ncn4c3CN=C(c3ccccc3F)c3cc(C#C)ccc3-4)ncn1-2`
Result: 83.5%

====

test: Incubation with heat-inactivated human liver microsomes (stability control); settings: 10 μM, 60 min
Observable: Mean % Remaining vs T = 0 min, with HI (Heat Inactivated) Microsomes (%)
The response must be a number in % with no trailing unit.

>  <Structure string>
C#Cc1ccc2c(c1)C(c1ccccc1)=NCc1c(C(=O)O)ncn1-2

>  <Recorded number>
97.4

$$$$
>  <Structure string>
C#Cc1ccc2c(c1)C(c1ccccc1F)=N[C@H](C)c1c(C(=O)OCC)ncn1-2

>  <Recorded number>
117

$$$$
>  <Structure string>
C#Cc1ccc2c(c1)C(c1ccccc1F)=NCc1c(C(=O)OCCCOC(=O)c3ncn4c3CN=C(c3ccccc3F)c3cc(C#C)ccc3-4)ncn1-2

>  <Recorded number>
97.0

$$$$
>  <Structure string>
C#Cc1ccc2c(c1)C(c1ccccn1)=NCc1c(-c3nc(C(C)C)no3)ncn1-2

>  <Recorded number>
92.0

$$$$

Please find the next compound below.
Ask: What does the data say about its Mean % Remaining vs T = 0 min, with HI (Heat Inactivated) Microsomes? Entry: `C#Cc1ccc2c(c1)C(c1ccccc1)=NCc1c(C(=O)OCCCOC(=O)c3ncn4c3CN(C)C(=O)c3cc(Cl)ccc3-4)ncn1-2`
Result: 114
